Test system: Mycobacterium tuberculosis strain H37Rv
assayComment: Test 2: MIC determination against M. tuberculosis, resazurin fluorescence
Assay type: cell-based
runParameters: Test 2, M. tuberculosis H37Rv
Can you tell me Bacterial activity pMIC50 for the items I'm about to list?
Reply: number alone, nothing else.

Value of measured Bacterial activity pMIC50 for the entry CCc1nc2ncc(C)cn2c1C(=O)NCc1ccc(-c2nc3n(n2)CCC(C(F)(F)F)C3)cc1 (single isomer, unassigned) [Compound 1b] : 8.576

// recorded Bacterial activity pMIC50 for CCc1nc2ncc(C)cn2c1C(=O)NCc1ccc(-c2cn3c(n2)CC(COC)CC3)cc1 (single isomer, unassigned) [Compound 118] : 7.48

Form: molecule = CCc1nc2ncccn2c1C(=O)NCc1ccc(-c2nc3n(n2)CC[C@H](C(F)(F)F)C3)c(F)c1 (single isomer, unassigned) [Compound 74] ; Bacterial activity pMIC50 = 6.94

So for CCc1nc2ncc(C)cn2c1C(=O)NCc1ccc(-c2cn3c(n2)CC(C(F)(F)F)CC3)cc1 (single isomer, unassigned) [Compound 3a] , the logged Bacterial activity pMIC50 turned out to be 8.532

Documented Bacterial activity pMIC50 of CCc1nc2nc(C)ccn2c1C(=O)NCc1ccc(-c2nc3n(n2)CCC(C(F)(F)F)C3)cc1 (centres unmarked) [Compound 5b] : 7.873

What the record says about CCc1nc2ncccn2c1C(=O)NCc1ccc(-c2nc3n(n2)CC[C@@H](C(F)(F)F)C3)c(C)c1 [Compound 86] : Bacterial activity pMIC50 is 6.98

According to the records, this molecule CCc1nc2ncc(OC)cn2c1C(=O)NCc1ccc(-c2nc3n(n2)CCCC3)cc1 [Compound 119] displays Bacterial activity pMIC50 of 7.72

Lookup result for CCc1nc2ncc(C)cn2c1C(=O)NCc1ccc(-c2cn3c(n2)CC(CC)CC3)cc1 (centres unmarked) [Compound 109] ; measured Bacterial activity pMIC50: 8.04

Reported Bacterial activity pMIC50 ( CCc1nc2ncc(C)cn2c1C(=O)NCc1ccc(-c2cn3c(n2)CC(C(F)F)CC3)cc1 (centres unmarked) [Compound 147] ) = 7.82

Sample O=C(NCc1ccc(-c2nc3n(n2)CCC(C(F)(F)F)C3)cc1)c1c(C(F)(F)F)nc2ncccn12 (single isomer, unassigned) [Compound 2b] ; Bacterial activity pMIC50 observed: 7.502

// Bacterial activity pMIC50 lookup, molecule = CCc1nc2n(c1C(=O)NCc1ccc(-c3nc4n(n3)CC[C@H](C(F)(F)F)C4)c(F)c1)CCCC2 (single isomer, unassigned) [Compound 77] , result: 7.6

Please fill in: Bacterial activity pMIC50 reported for CCc1nc2n(c1C(=O)NCc1ccc(-c3nc4n(n3)CC[C@@H](C(F)(F)F)C4)c(F)c1)CCCC2 (single isomer, unassigned) [Compound 76] = 7.55

Bacterial activity pMIC50 measured on CCc1nc2cc(F)ccn2c1C(=O)NCc1ccc(-c2nc3n(n2)CCC(C(F)(F)F)C3)cc1 (racemic) [Compound 7ab] = 8.362

---

For each record, write down the corresponding Chemical stability data, Buffer pH4.
assayComment: HTChem stab assay (chemical stability in buffer pH2, pH4 and pH7 vs DMSO reference)
Assay type: physicochemical
runParameters: buffer pH4/DMSO; 72 h stirring at rt
Reply with just the number (in %).

Briefly, Chemical stability data, Buffer pH4 measured for CCc1nc2ncccn2c1C(=O)NCc1ccc(-c2nc3n(n2)CCC(C(F)(F)F)C3)cc1 (racemic) [Compound 17ab] : 97

response.value for CCc1nc2n(c1C(=O)NCc1ccc(-c3nc4n(n3)CCC(C(F)(F)F)C4)cc1)CCCC2 (racemic) [Compound 13ab] (field: Chemical stability data, Buffer pH4) = 100

For record O=C(NCc1ccc(-c2nc3n(n2)CCC(C(F)(F)F)C3)cc1)c1c(C(F)F)nc2ccccn12 (racemic) [Compound 14ab] the listed Chemical stability data, Buffer pH4 is 100

Noted for O=C(NCc1ccc(-c2cn3c(n2)CC(C(F)(F)F)CC3)cc1)c1c(C(F)(F)F)nc2ccccn12 (racemic) [Compound 18ab] : its Chemical stability data, Buffer pH4 reads 100

Value of Chemical stability data, Buffer pH4 reported for the compound CCc1nc2cc(F)ccn2c1C(=O)NCc1ccc(-c2nc3n(n2)CCC(C(F)(F)F)C3)cc1 (racemic) is 100

The reported value for O=C(NCc1ccc(-c2cn3c(n2)CC(C(F)(F)F)CC3)nc1)c1c(C(F)(F)F)nc2ccccn12 (stereo not drawn) [Compound 36ab] in terms of Chemical stability data, Buffer pH4 is 100
